I'd appreciate it if you could supply peptide exchange yield values for the items below.
# system: HLA-A*02:01 (peptide-receptive MHC class I molecule, heavy chain with beta-2-microglobulin) (human)
# test: UV-ligand exchange, anti-b2m ELISA; peptide exchange yield grade (>10% = +; >20% = ++; >50 = +++; >75% = ++++)

// sample FLNGLEILL (synthetic peptide; source gene MDN1) [FLNGLEILL (SEQ ID NO: 44)] , its peptide exchange yield was > 75%

Value of peptide exchange yield reported for the binder GLVEQLYDL (synthetic peptide; source gene NOC2L) [GLVEQLYDL (SEQ ID NO: 47)] is 50 to 75%

Just so you know, measured peptide exchange yield for ILLELFTHV (synthetic peptide; source genes FBXO6, FBXO44) [ILLELFTHV (SEQ ID NO: 25)] came out at > 75%

Lab book: peptide exchange yield of RILDIDIPLSV (synthetic peptide; source gene TFCP2L1) [RILDIDIPLSV (SEQ ID NO: 38)] noted as 50 to 75%

Per the record, GLDGATYTV (synthetic peptide; source gene SEMA4C) [GLDGATYTV (SEQ ID NO: 3)] has peptide exchange yield of 50 to 75%

Memo: AIAGRLLGV (synthetic peptide; source gene CLCN5) [AIAGRLLGV (SEQ ID NO: 34)] , reported peptide exchange yield: > 75%

For VIANEIEKV (synthetic peptide; source gene APOL4) [VIANEIEKV (SEQ ID NO: 43)] the binder record lists peptide exchange yield as 50 to 75%

Recorded peptide exchange yield (binder SLLSELVEA (synthetic peptide; source gene KLHDC5) [SLLSELVEA (SEQ ID NO: 6)] ): > 75%

Value source: patent US20170260249A1
